target: Hypoxia-inducible factor 1-alpha (Homo sapiens, UniProt Q16665); assay: Inhibition of HIF-1alpha-mediated VEGF expression in human Hep3b cells by luciferase reporter gene assay; format: cell-based
Sequence (Q16665 whole entry): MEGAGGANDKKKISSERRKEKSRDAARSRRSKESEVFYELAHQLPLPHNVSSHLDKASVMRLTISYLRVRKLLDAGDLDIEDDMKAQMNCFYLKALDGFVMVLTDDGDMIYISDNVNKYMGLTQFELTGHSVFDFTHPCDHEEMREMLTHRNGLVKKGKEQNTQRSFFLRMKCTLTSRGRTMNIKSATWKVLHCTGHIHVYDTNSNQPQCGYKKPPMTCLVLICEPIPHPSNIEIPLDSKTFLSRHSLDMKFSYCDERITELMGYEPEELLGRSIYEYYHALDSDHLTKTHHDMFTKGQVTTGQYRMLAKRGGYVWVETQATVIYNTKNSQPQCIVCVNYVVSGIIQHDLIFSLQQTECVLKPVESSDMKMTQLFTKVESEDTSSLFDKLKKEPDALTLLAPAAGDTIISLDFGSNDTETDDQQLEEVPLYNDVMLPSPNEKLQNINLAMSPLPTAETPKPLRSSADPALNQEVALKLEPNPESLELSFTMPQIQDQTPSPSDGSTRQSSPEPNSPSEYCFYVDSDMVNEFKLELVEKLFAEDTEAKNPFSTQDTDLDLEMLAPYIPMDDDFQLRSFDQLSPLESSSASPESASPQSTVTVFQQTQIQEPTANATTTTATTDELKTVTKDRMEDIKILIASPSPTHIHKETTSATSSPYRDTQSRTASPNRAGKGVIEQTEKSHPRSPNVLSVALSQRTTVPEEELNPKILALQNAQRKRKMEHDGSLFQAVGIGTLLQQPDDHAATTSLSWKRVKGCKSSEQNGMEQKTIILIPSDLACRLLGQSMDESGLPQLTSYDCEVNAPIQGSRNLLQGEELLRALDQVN
reported.metric: IC50 (nM)
Hi! Could you send only the number? It should be in nM, unit omitted.

Name the recorded IC50 for CN1C(=O)[C@@]23C[C@]4([C@]56C[C@@]78SS[C@@](CO)(C(=O)N7[C@H]5Nc5ccccc56)N(C)C8=O)c5ccccc5N[C@@H]4N2C(=O)[C@]1(CO)SS3 [CHAETOCIN] .
40

---

test: Apparent permeability across human Caco2 cells at 20 uM; format: ADME, cell-based; conditions: Caco-2
reported.metric: Papp at 20 µM (×10⁻⁶ cm/s)
Hi! Could you send only the number? It should be in ×10⁻⁶ cm/s, unit omitted.

Name the recorded Papp at 20 µM for CNC(=C[N+](=O)[O-])NCCSCc1ccc(CN(C)C)o1 [RANITIDINE] .
0.6

---

target: Hypoxia-inducible factor 1-alpha (Homo sapiens, UniProt Q16665); assay: Inhibition of HIF-1alpha in human LN229 cells under hypoxia condition by HRE-luciferase reporter gene assay; type: cell-based
reported.metric: IC50 (µM)
Hi! Could you send only the number? It should be in µM, unit omitted.

Name the recorded IC50 for COc1c(C(C2CCCCC2)n2cnc3c(Cl)cccc32)ccc2c1C=CC(C)(C)O2 (stereo unspecified) .
7.5

---

biological target: Hypoxia-inducible factor 1-alpha (Homo sapiens); test: Inhibition of HIF-1alpha-mediated VEGF secretion in human Hep3b cells by ELISA; assay type: cell-based
reported.metric: pIC50
By convention, pIC50 is the negative base-10 log of a molar concentration.

I'm curious: which pIC50 was measured for CN1C(=O)[C@@]23C[C@]4([C@]56C[C@@]78SS[C@@](CO)(C(=O)N7[C@H]5Nc5ccccc56)N(C)C8=O)c5ccccc5N[C@@H]4N2C(=O)[C@]1(CO)SS3 tested on Hypoxia-inducible factor 1-alpha (Homo sapiens)?
7.00
